tested on: NS3 GT1a mutant replicons; type: cell-based, HCV; details: mutant R155M
Provide the reported fold change in EC50 vs wild-type GT1a of each item.
Answers are plain numbers, in fold.

COMPOUND	U	fold change in EC50 vs wild-type GT1a
CC[C@@H]1C[C@]1(NC(=O)[C@@H]1C[C@@H](Oc2cc(-c3csc(NC(C)C)n3)nc3c(Cl)c(OCCN4CCOCC4)ccc23)CC1C(=O)[C@@H](NC(=O)O[C@@H]1C[C@@H]2C[C@@H]2C1)C(C)(C)C)C(=O)O (stereo partly shown)	fold	1.5
CC(C)OC(=O)[C@H](C)N[P@](=O)(OC[C@H]1O[C@@](C#N)(c2ccc3c(N)ncnn23)[C@](C)(O)[C@@H]1OC(=O)C(C)C)Oc1ccccc1	fold	0.4

For the 2 compounds below, give their fold change in EC50 vs wild-type GT1a values.
1. COC(=O)N[C@H](C(=O)N1CC2(CC2)C[C@H]1c1ncc(-c2ccc3c(c2)C(F)(F)c2cc(-c4ccc5nc([C@@H]6[C@H]7CC[C@H](C7)N6C(=O)[C@@H](NC(=O)OC)C(C)C)[nH]c5c4)ccc2-3)[nH]1)C(C)C
2. CC1=CC[C@H](C(=O)N(c2cc(C#CC(C)(C)C)sc2C(=O)O)[C@H]2CC[C@](O)(CO[C@H]3CCOC3)CC2)CC1

## Output
1: 0.3; 2: 0.7
